study-system: androgen receptor (AdEasy+rAR, L929 cells) (Rattus norvegicus)
Construct: expressed in transfected cells; host or cells: L929 cells transduced with adenovirus AdEasy+rAR
Sequence (P15207 whole entry S389L): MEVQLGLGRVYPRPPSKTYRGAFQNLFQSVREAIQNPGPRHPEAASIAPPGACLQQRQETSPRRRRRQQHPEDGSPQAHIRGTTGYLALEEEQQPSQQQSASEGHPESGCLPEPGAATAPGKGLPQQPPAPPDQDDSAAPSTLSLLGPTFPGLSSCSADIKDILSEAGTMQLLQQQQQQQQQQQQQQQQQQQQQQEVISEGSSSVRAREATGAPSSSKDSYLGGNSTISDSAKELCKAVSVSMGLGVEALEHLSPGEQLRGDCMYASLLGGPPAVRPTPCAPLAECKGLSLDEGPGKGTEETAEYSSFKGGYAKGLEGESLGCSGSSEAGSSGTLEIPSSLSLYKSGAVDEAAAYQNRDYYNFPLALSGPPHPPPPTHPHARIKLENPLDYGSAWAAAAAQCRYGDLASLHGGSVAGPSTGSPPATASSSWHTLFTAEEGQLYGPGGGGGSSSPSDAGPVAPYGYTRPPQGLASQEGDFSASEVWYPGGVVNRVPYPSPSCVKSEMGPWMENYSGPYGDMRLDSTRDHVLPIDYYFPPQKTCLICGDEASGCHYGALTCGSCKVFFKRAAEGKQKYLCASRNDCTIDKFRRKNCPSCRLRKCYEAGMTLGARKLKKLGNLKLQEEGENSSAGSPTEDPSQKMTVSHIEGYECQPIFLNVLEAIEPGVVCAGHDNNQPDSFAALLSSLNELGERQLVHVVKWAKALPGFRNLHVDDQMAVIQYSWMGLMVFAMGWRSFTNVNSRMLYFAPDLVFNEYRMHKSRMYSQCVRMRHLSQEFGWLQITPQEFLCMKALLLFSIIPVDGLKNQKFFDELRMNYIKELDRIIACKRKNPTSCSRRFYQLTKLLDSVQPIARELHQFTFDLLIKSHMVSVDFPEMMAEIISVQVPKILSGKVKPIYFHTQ
measurement-description: L929 Androgen Receptor Functional Assay, Adenovirus Transduction
Type: cell-based
experimental-conditions: agonist testing, 3000 nM
observation-type: % Activity, L929 androgen receptor functional assay (%)
Provide only the numeric value, understood in %.

compound: CC(O)(CSCc1ccco1)c1cc2cc([N+](=O)[O-])c(C(F)(F)F)cc2[nH]1 (racemic) [Compound 198]
unit-name: %
assay-value: 7
//
compound: COc1ccc(S(=O)(=O)CC(C)(O)c2cc3cc(Cl)c(C(F)(F)F)cc3n2S(C)(=O)=O)cc1 (stereo not shown) [Compound 128]
unit-name: %
assay-value: −4
//
compound: CC(O)(CSCC(F)(F)F)c1cc2cc(Cl)c(C(F)(F)F)cc2[nH]1 (stereo not shown) [Compound 190]
unit-name: %
assay-value: 1

Query: Complete the entry with % Activity, L929 androgen receptor functional assay for CC(O)(CSCC(F)(F)F)c1cc2cc(F)c(C(F)(F)F)cc2[nH]1 (stereo not shown) [Compound 189]
Reply: 3

====

study-system: androgen receptor (AdEasy+rAR, L929 cells) (Rattus norvegicus)
Construct: expressed in transfected cells; host or cells: L929 cells transduced with adenovirus AdEasy+rAR
measurement-description: L929 Androgen Receptor Functional Assay, Adenovirus Transduction
Format: cell-based
experimental-conditions: L929, antagonist testing with R1881, 3000 nM
We'd kindly ask you to apply these inhibition at 3 µM classes: low-valued: < 50%; mid-valued: ≥ 50% and < 80%; high-valued: ≥ 80%

Example entries and their recorded answers appear below.
molecule: CCS(=O)(=O)CC(C)(O)c1cc2cc([N+](=O)[O-])c(C(F)(F)F)cc2[nH]1 (centres unmarked)
assigned-class: mid-valued

molecule: CC(O)(CS(C)(=O)=O)c1cc2cc(Cl)c(C(F)(F)F)cc2n1S(C)(=O)=O (centres unmarked)
assigned-class: mid-valued

molecule: CCCCSCC(C)(O)c1cc2cc([N+](=O)[O-])c(C(F)(F)F)cc2[nH]1 (centres unmarked)
assigned-class: high-valued

molecule: CC(O)(CS(=O)(=O)c1ccc(N)cc1)c1cc2cc(Cl)c(C(F)(F)F)cc2[nH]1 (centres unmarked)
assigned-class: mid-valued

molecule: CC(O)(CCS(C)(=O)=O)c1cc2cc([N+](=O)[O-])c(C(F)(F)F)cc2[nH]1 (centres unmarked)
assigned-class: low-valued

Query: Determine which band this molecule sits in: CC(O)(CSCc1cccs1)c1cc2cc([N+](=O)[O-])c(C(F)(F)F)cc2[nH]1 (centres unmarked)
Reply: low-valued

====

Catalogue of molecules with associated IC50
study-system: androgen receptor LBD (Panvera) (Rattus norvegicus)
Construct: 5 pmol androgen receptor LBD (Panvera); purchased Panvera
measurement-description: Androgen Receptor Filtration Binding Assay (PANVERA)
experimental-conditions: read-out: IC50 (nM), Androgen Receptor Binding (Panvera)
Provide only the numeric value, understood in nM.

# example entries with known answers
molecule: CC(O)(COC(=O)c1ccccc1Cl)c1cc2cc([N+](=O)[O-])c(C(F)(F)F)cc2[nH]1 (stereo not shown)
observation-type: IC50
unit-name: nM
assay-value: 465

molecule: CC(O)(COC(=O)c1cccc(Cl)c1)c1cc2cc([N+](=O)[O-])c(C(F)(F)F)cc2[nH]1 (stereo not shown)
observation-type: IC50
unit-name: nM
assay-value: 455

molecule: CC(O)(CSc1ccc(Cl)cc1)c1cc2cc(C#N)c(C(F)(F)F)cc2[nH]1 (stereo not shown)
observation-type: IC50
unit-name: nM
assay-value: 1710

Now for the molecule whose IC50 we want.
Query: Complete the entry with IC50 for CC(O)(COC(=O)c1ccccc1C(F)(F)F)c1cc2cc(N)c(C(F)(F)F)cc2[nH]1 (stereo not shown)
Reply: 4100

====

study-system: androgen receptor (AdEasy+rAR, L929 cells) (Rattus norvegicus)
Construct: expressed in transfected cells; host or cells: L929 cells transduced with adenovirus AdEasy+rAR
measurement-description: L929 Androgen Receptor Functional Assay, Adenovirus Transduction
Format: cell-based
experimental-conditions: L929, antagonist testing with R1881, 3000 nM
Experimental: L929 cells were plated in 96-well plates at 20,000 cells per well, in DMEM/F12 (GIBCO) containing 10% (v/v) charcoal-treated fetal bovine serum (Hyclone) and lacking phenol red. […] To each well was added 100 μL of Steady-Glo luciferase assay substrate (Promega) and the plates were placed on a rotary shaker for 1 min. […] The contents of each well were then transferred to a white microtiter plate (Packard) and read on a Luminoskan Ascent (Thermo Lab Systems). […]
Catalogue of compounds with associated inhibition at 3 µM
Please format your answer as a value with the unit trailing.

compound: CCSCC(C)(O)c1cc2cc([N+](=O)[O-])c(C(F)(F)F)cc2n1S(C)(=O)=O (centres unmarked) [Compound 141]
inhibition at 3 µM: 42%

Query: Complete the entry with inhibition at 3 µM for CCC(O)(CSCC(F)(F)F)c1cc2cc(Cl)c(C(F)(F)F)cc2[nH]1 (centres unmarked) [Compound 192]
Reply: 89%

Query: Complete the entry with inhibition at 3 µM for CC(O)(CS(C)(=O)=O)c1cc2cc(Cl)c(C(F)(F)F)cc2[nH]1 (centres unmarked) [Compound 138]
Reply: 19%

Query: Complete the entry with inhibition at 3 µM for CCSCC(C)(O)c1[nH]c2cc(C(F)(F)F)c(C#N)cc2c1C (centres unmarked) [Compound 219]
Reply: 103%

Query: Complete the entry with inhibition at 3 µM for CC(O)(CSc1ccc(O)cc1)c1cc2cc(Cl)c(C(F)(F)F)cc2[nH]1 (centres unmarked) [Compound 120]
Reply: 44%

Query: Complete the entry with inhibition at 3 µM for CCSCC(O)(CC)c1cc2cc([N+](=O)[O-])c(C(F)(F)F)cc2[nH]1 (centres unmarked) [Compound 169]
Reply: 98%

Query: Complete the entry with inhibition at 3 µM for CCC(O)(CS(=O)(=O)CC(F)(F)F)c1[nH]c2cc(C(F)(F)F)c([N+](=O)[O-])cc2c1Cl (centres unmarked) [Compound 199]
Reply: 59%

Query: Complete the entry with inhibition at 3 µM for CCSCC(C)(O)c1cc2cc(C#N)c(C(F)(F)F)cc2n1C (centres unmarked) [Compound 236]
Reply: 103%

====

Catalogue of compounds with associated % Inhibition, Androgen Receptor Binding (Rat Cytosol)
study-system: androgen receptor (rat ventral prostate cytosol) (Rattus norvegicus)
Construct: from tissue; host or cells: ventral prostate cytosol of castrated male Sprague Dawley or Wistar rats
Sequence (P15207 whole entry S389L): as above
measurement-description: Androgen Receptor Binding Using Rat Ventral Prostate Cytosol
experimental-conditions: Concentration 1000 nM
Provide only the numeric value, understood in %.

compound: CS(=O)(=O)n1c(C2(O)CCN(C(=O)c3ccc(Cl)cc3)CC2)cc2cc(Cl)c(C(F)(F)F)cc21
assay-value: 2
//
compound: COc1ccc(CN2CCC(O)(c3cc4cc(Cl)c(C(F)(F)F)cc4[nH]3)CC2)cc1
assay-value: −19
//
compound: CC(O)(Sc1ccccc1)c1cc2cc([N+](=O)[O-])c(C(F)(F)F)cc2[nH]1 (racemic)
assay-value: 35.4
//
compound: CC(O)(c1cc2cc(C#N)c(C(F)(F)F)cc2[nH]1)S(=O)(=O)c1ccc(Cl)cc1 (racemic)
assay-value: −8.4

Query: Provide % Inhibition, Androgen Receptor Binding (Rat Cytosol), system androgen receptor (rat ventral prostate cytosol) (Rattus norvegicus), entry CC(O)(Sc1ccc(Cl)cc1)c1cc2cc(C#N)c(C(F)(F)F)cc2[nH]1 (racemic)
Reply: 14.05

Query: Provide % Inhibition, Androgen Receptor Binding (Rat Cytosol), system androgen receptor (rat ventral prostate cytosol) (Rattus norvegicus), entry OC1(c2cc3cc(Cl)c(C(F)(F)F)cc3[nH]2)CCN(Cc2ccc(F)cc2)CC1
Reply: −3.4

Query: Provide % Inhibition, Androgen Receptor Binding (Rat Cytosol), system androgen receptor (rat ventral prostate cytosol) (Rattus norvegicus), entry CS(=O)(=O)n1c(C2(O)CCN(Cc3ccccc3)CC2)cc2cc(Cl)c(C(F)(F)F)cc21
Reply: −41.5

Query: Provide % Inhibition, Androgen Receptor Binding (Rat Cytosol), system androgen receptor (rat ventral prostate cytosol) (Rattus norvegicus), entry OC1(c2cc3cc(Cl)c(C(F)(F)F)cc3[nH]2)CCN(Cc2ccc(Cl)c(Cl)c2)CC1
Reply: −34

Query: Provide % Inhibition, Androgen Receptor Binding (Rat Cytosol), system androgen receptor (rat ventral prostate cytosol) (Rattus norvegicus), entry CC(C)(C)c1ccc(CN2CCC(O)(c3cc4cc(Cl)c(C(F)(F)F)cc4[nH]3)CC2)cc1
Reply: 34

Query: Provide % Inhibition, Androgen Receptor Binding (Rat Cytosol), system androgen receptor (rat ventral prostate cytosol) (Rattus norvegicus), entry CS(=O)(=O)n1c(C2(O)CCNCC2)cc2cc(Cl)c(C(F)(F)F)cc21
Reply: −1.5

Query: Provide % Inhibition, Androgen Receptor Binding (Rat Cytosol), system androgen receptor (rat ventral prostate cytosol) (Rattus norvegicus), entry CC(O)(c1cc2cc([N+](=O)[O-])c(C(F)(F)F)cc2[nH]1)S(=O)(=O)c1ccc(Cl)c(Cl)c1 (racemic)
Reply: 26

Query: Provide % Inhibition, Androgen Receptor Binding (Rat Cytosol), system androgen receptor (rat ventral prostate cytosol) (Rattus norvegicus), entry CC(O)(Sc1ccc(Cl)c(Cl)c1)c1cc2cc([N+](=O)[O-])c(C(F)(F)F)cc2[nH]1 (racemic)
Reply: 41

Query: Provide % Inhibition, Androgen Receptor Binding (Rat Cytosol), system androgen receptor (rat ventral prostate cytosol) (Rattus norvegicus), entry OC1(c2cc3cc(Cl)c(C(F)(F)F)cc3[nH]2)CCN(Cc2ccc(Cl)cc2)CC1
Reply: 20
